Form: system (PKMYT1 kinase (Homo sapiens (Human))), quantity (IC50), values below.
Numbers only, in nM.

Field: IC50. Fill in for each record below.
1. CC(C)n1c(=O)c2cnc(Nc3ccc4c(c3)CCNC4)nc2n1-c1ccnc(C2(C#N)CC2)c1
2. CCn1c(=O)c2cnc(Nc3ccc4c(c3)CNCC4)nc2n1-c1cccc(C2(C#N)CC2)n1
3. CCn1c(=O)c2cnc(Nc3ccc4c(c3)CNCC4(C)C)nc2n1-c1cccc(C2(C#N)CC2)n1
4. CCn1c(=O)c2cnc(Nc3ccc4c(c3)CNCC4)nc2n1-c1cccc(C2(CF)CC2)n1

1: 2900; 2: 223; 3: 121; 4: 4200

* * *

Test system: A427 cells
Assay: Cytotoxicity assay in A427 cell line (resazurin)
Type: cell-based
Settings: Homo sapiens, A-427; A427 lung epithelial cell line, 72 hr, inhibition of proliferation
Exercise: state measured pIC50 for each of the compounds provided.
Numbers only, as −log10 of the molar value.

Query (compound): N#CC1(c2cccc(-n3c4nc(Nc5ccc6c(c5)CNCC6)ncc4c(=O)n3CC(F)(F)F)n2)CC1 [1.32] ; field requested: pIC50 6.06

Attention now turns to another entry.
Query (compound): CC(C)n1c(=O)c2cnc(Nc3ccc4c(c3)CCNC4)nc2n1-c1ccc(F)c(C(C)(C)O)n1 [1.249] ; field requested: pIC50 6.23

Origin of measurements: patent US11332473B2
